Value source: PubChem BioAssay (NCATS)

# ASSAY NOTES: Immunotoxin (SS1P) sensitization/mitigation study. Vehicle arm (DMEM) (AID 1159513)
# ASSAY CONTEXT: cell viability with vehicle (DMEM); series mostly up to 46.1 µM
Calls of active or inactive are those of the source. No rule for the calls is given here. Numbered stars: 1 amine (or outer) side, 2 acyl side, 3 side chain; on linkers, the order of the positions; unused ones are H or OH. Bridge positions count the residues as written; N and C are the ends. Square brackets hold non-standard residues; d marks the D form. Peptide text beside a SMILES is read from it. I, II: the chains in the order shown. ξ: configuration not given here. Actinocin(9to1) = Cc1c2oc3c(C)ccc(C(=O)[*:1])c3nc-2c(C(=O)[*:2])c(N)c1=O; ξNMeV = CNC(C(=O)O)C(C)C; ξV = CC(C)C(N)C(=O)O; Sar = CNCC(=O)O
Outcome codes: active, inactive

MOLECULE	ASSIGNED LABEL
CC1(C)Cc2c(-c3ccccc3)c(-c3ccc(Cl)cc3)c(CC(=O)O)n2C1	active
CN(C)CCCN=c1c2ccccc2n(C)c2[nH]c(=O)n(C)c(=O)c12	active
Cc1c2oc3c(C)ccc(C(=O)N[C@@H]4C(=O)NC(C(C)C)C(=O)N5CCC[C@H]5C(=O)N(C)CC(=O)N(C)C(C(C)C)C(=O)O[C@@H]4C)c3nc-2c(C(=O)N[C@@H]2C(=O)NC(C(C)C)C(=O)N3CCC[C@H]3C(=O)N(C)CC(=O)N(C)C(C(C)C)C(=O)O[C@@H]2C)c(N)c1=O (stereo not given in full) (I: T[ξV]P[Sar][ξNMeV] / II: T[ξV]P[Sar][ξNMeV]; ester I:1-I:C, II:1-II:C; linker I:N-II:N via Actinocin(9to1))	active
CC(=O)N(C)C1(c2ccccc2)CCN(CCC[C@]2(c3ccc(Cl)c(Cl)c3)CCCN(C(=O)c3ccccc3)C2)CC1	active
C1Cc2[nH]nc(-c3nn[nH]n3)c2C1	inactive
O=C(C=Cc1ccc(/C=C/C(=O)Nc2ccc(C3=NCCN3)cc2)cc1)Nc1ccc(C2=NCCN2)cc1	inactive
COc1ccc(-c2ccc3c(N4CCOCC4)nc(N4C[C@@H](C)O[C@@H](C)C4)nc3n2)cc1CO	active
N#Cc1c(O)c2c(-c3ccc(-c4ccccc4O)cc3)csc2[nH]c1=O	inactive
O=C1[C@H](Cc2ccc(O)cc2)N2C(=O)CCN(C(=O)NCc3ccccc3)[C@H]2CN1Cc1cccc2ccccc12	active
COc1cccc2cc(-c3nc(C4CCC(C(=O)O)CC4)n4ncnc(N)c34)[nH]c12 (stereo not given)	active
Cc1ccc(NC(=O)c2cccc(C(C)(C)C#N)c2)cc1Nc1ccc2ncn(C)c(=O)c2c1	active
Cc1cc(-c2nnc3n2CCCCC3)c(C)n1-c1ccc(F)cc1	active
C=CC(=O)Nc1cc2c(Nc3ccc(F)c(Cl)c3)ncnc2cc1C#CC(C)(C)N1CCN(C)CC1	active
Cc1nc(N)sc1-c1ccnc(Nc2ccc(N3CCOCC3)cc2)n1	active
COc1cc2c(cc1O)CC[C@@H]1[C@@H]2CC[C@]2(C)[C@@H](O)CC[C@@H]12	active
O=C(O)CCC1CCC(c2cc(F)ccc2F)(S(=O)(=O)c2ccc(Cl)cc2)CC1 (stereo not given)	inactive
CCCCc1ccc(NS(=O)(=O)c2ccc(C)c(C(=O)N3CCN(c4cccc(C)c4C)CC3)c2)cc1	active
Cn1cc(-c2[nH]c3cc(NC(=O)[C@H](N)C4CCCCC4)cc4c3c2C=NNC4=O)cn1	active
Oc1cccc(-c2nc(N3CCOCC3)c3oc4ncccc4c3n2)c1	active
CCNC(=O)c1noc(-c2cc(C(C)C)c(O)cc2O)c1-c1ccc(CN2CCOCC2)cc1	active
COc1ccc(OC)c(-c2nnc3ccc(-c4ccc(OC)c(O[C@@H]5CCOC5)c4)nn23)c1	active
CC(=O)Nc1ccc([C@H](C)C(=O)Nc2ncc(C(C)C)s2)cc1	active
COC(=O)[C@]12CCC(C)(C)C[C@@H]1[C@@H]1C(=O)C=C3[C@@]4(C)C=C(C#N)C(=O)C(C)(C)[C@@H]4CC[C@@]3(C)[C@]1(C)CC2	active
COCCNCCCn1c(C(=O)CF)c(-c2ccc(C)cc2)c2c(N)ncnc21	inactive
CCC(=O)N1CCN(c2ccc(-n3c(=O)ccc4cnc5ccc(-c6cnc7ccccc7c6)cc5c43)cc2C(F)(F)F)CC1	active
O=c1cc(N2CCOCC2)oc2c(-c3cccc4c3sc3ccccc34)cccc12	active
COc1cc(Nc2ncc(F)c(Nc3ccc4c(n3)NC(=O)C(C)(C)O4)n2)cc(OC)c1OC	active
COc1ccc(C=Cc2cc(OC)c(OC)c(OC)c2)cc1O	active
Cn1c(=O)n(-c2ccc(C(C)(C)C#N)cc2)c2c3cc(-c4cnc5ccccc5c4)ccc3ncc21	active
NC(=O)c1ccc(-c2nc(-c3ccc4c(c3)OCCO4)c(-c3ccccn3)[nH]2)cc1	inactive
Cc1ccc(NC(=O)c2ccc(CN3CCN(C)CC3)cc2)cc1Nc1nc(-c2cccnc2)cs1	active
NC(=O)Nc1cc(-c2cccc(F)c2)sc1C(=O)N[C@H]1CCCNC1	active
CN1C(=O)C(Cc2c[nH]c3ccccc23)NC1=S (stereo not given)	inactive
COc1cc2ncnc(-n3nc(-c4ccccn4)nc3N)c2cc1OC	active
CC1(O)CC(c2nc(-c3ccc4ccc(-c5ccccc5)nc4c3)c3c(N)nccn23)C1 (stereo not given)	active
